Listing: activity at 5000 µM of selected compounds
target: PfNT1 (Plasmodium falciparum); construct: expressed in transfected cells; host or cells: Xenopus laevis oocytes (stage V-VI), cRNA-injected; experiment: cell-based; format: cell-based; conditions: total [3H]CQ transport; [test solute]i = 5 mM (intracellular); mean ± SEM; SEM; read-out: Uptake of [3H]CQ (% PfCRTDd2 control), trans-stimulation, PfNT1
Sequence (Q8IDM6 whole entry): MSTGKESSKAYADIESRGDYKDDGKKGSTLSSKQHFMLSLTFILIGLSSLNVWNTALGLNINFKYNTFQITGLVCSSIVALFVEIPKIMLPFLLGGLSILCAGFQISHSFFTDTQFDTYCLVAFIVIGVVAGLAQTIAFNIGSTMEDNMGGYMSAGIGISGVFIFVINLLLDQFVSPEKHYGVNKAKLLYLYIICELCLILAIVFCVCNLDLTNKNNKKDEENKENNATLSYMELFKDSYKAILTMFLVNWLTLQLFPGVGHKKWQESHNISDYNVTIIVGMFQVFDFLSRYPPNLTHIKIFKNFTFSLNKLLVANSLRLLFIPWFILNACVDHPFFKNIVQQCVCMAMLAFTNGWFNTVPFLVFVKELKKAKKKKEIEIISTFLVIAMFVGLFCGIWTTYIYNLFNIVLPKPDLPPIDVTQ
Field: numeric (%). Do not append units.

SAMPLE_SMILES: N=C(N)NCCC[C@H](N)C(=O)O
NUMERIC_READOUT: 3.3
--
SAMPLE_SMILES: N[C@@H](CO)C(=O)O
NUMERIC_READOUT: 3
--
SAMPLE_SMILES: NCCCC[C@H](N)C(=O)O
NUMERIC_READOUT: 2.1
--
SAMPLE_SMILES: CC(C)[C@H](N)C(=O)O
NUMERIC_READOUT: 2.7
--
SAMPLE_SMILES: CC[C@H](C)[C@H](N)C(=O)O
NUMERIC_READOUT: 3.1

Exercise: Reported activity at 5000 µM, compound NC(=O)CC[C@H](N)C(=O)O : ____
Key: 3.2

* * *

biological target: PfCRT^3D7 (Plasmodium falciparum, UniProt Q8IBZ9); test: cell-based; type: cell-based; details: […]; read-out: PfCRT-mediated [3H]CQ transport, trans-stimulation (% PfCRT3D7 control)
Sequence (Q8IBZ9 59-398): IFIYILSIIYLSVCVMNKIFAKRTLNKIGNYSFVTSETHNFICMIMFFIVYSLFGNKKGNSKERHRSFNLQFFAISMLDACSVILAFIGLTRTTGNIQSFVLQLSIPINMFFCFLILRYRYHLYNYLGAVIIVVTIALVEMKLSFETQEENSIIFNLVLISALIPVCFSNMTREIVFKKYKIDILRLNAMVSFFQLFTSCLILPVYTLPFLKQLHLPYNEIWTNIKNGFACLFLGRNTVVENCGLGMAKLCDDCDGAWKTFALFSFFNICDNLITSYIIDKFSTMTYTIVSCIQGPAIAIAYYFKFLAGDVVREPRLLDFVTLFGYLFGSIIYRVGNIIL
MEASUREMENT_TYPE: activity at 45000 µM (%)
I only need the number, in %, no unit after it.

// known answers, use as guide
MOLECULE: N[C@@H](Cc1c[nH]c2ccccc12)C(=O)O [L-tryptophan]
UNITS_TEXT: %
activity at 45000 µM: 99
--
MOLECULE: C[C@@H](O)[C@H](N)C(=O)O [L-threonine]
UNITS_TEXT: %
activity at 45000 µM: 96
--
MOLECULE: NCCCC[C@H](N)C(=O)O [L-lysine]
UNITS_TEXT: %
activity at 45000 µM: 96
--
MOLECULE: N[C@@H](CCC(=O)O)C(=O)O [L-glutamic acid]
UNITS_TEXT: %
activity at 45000 µM: 97
--
MOLECULE: N[C@@H](CO)C(=O)O [L-serine]
UNITS_TEXT: %
activity at 45000 µM: 97

Query molecule follows.
Exercise: Entry under review: CC(C)[C@H](N)C(=O)O [L-valine] . Reported activity at 45000 µM?
Key: 96

* * *

target: UniProt:Q8IBZ9; assay: cell-based; type: cell-based; details: SEM
MEASUREMENT_TYPE: [3H]CQ transport (% PfCRT3D7 control), trans-stimulation, PfCRT3D7
The answer consists of two parts: a number and, after it, its unit.

Exercise: Endpoint output: [3H]CQ transport (% PfCRT3D7 control), trans-stimulation, PfCRT3D7 of C[C@H](N)C(=O)O . Value?
Key: 0.3 ± 0.01 % PfCRT3D7 control

Exercise: If you can, please state the reported [3H]CQ transport (% PfCRT3D7 control), trans-stimulation, PfCRT3D7 value of CC(C)C[C@H](N)C(=O)O .
Key: 0.3 ± 0.02 % PfCRT3D7 control

* * *

biological target: PfCRT^Ecu1110 (Plasmodium falciparum, UniProt Q9N623, A220S/I356L/K76T/N326D); experiment: [3H]CQ uptake into Xenopus oocytes, cis-inhibition by unlabelled solute; format: cell-based; settings: read-out: Uptake of [3H]CQ (% PfCRTEcu1110 control), cis-inhibition
Sequence (Q9N623 whole entry A220S/I356L/K76T/N326D): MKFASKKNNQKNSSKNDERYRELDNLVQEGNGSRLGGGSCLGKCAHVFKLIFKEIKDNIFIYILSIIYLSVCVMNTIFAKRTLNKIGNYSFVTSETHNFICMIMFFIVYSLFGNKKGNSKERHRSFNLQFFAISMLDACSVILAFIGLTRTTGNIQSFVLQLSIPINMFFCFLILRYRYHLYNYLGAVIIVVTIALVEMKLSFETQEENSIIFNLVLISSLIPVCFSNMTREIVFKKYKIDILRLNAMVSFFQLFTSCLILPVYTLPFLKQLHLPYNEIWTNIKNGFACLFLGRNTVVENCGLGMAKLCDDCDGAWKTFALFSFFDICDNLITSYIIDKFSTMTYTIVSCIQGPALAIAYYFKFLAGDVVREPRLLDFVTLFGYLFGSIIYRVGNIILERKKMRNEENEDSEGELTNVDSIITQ
MEASUREMENT_TYPE: inhibition at 2000 µM (%)
Report only the number, with the unit % understood.

COMPOUND: NCCCC[C@H](N)C(=O)O [L-lysine]
TEST_TARGET: PfCRT^Ecu1110 (Plasmodium falciparum, UniProt Q9N623, A220S/I356L/K76T/N326D)
inhibition at 2000 µM / %: 98
//
COMPOUND: CSCC[C@H](N)C(=O)O [L-methionine]
TEST_TARGET: PfCRT^Ecu1110 (Plasmodium falciparum, UniProt Q9N623, A220S/I356L/K76T/N326D)
inhibition at 2000 µM / %: 100
//
COMPOUND: N[C@@H](CO)C(=O)O [L-serine]
TEST_TARGET: PfCRT^Ecu1110 (Plasmodium falciparum, UniProt Q9N623, A220S/I356L/K76T/N326D)
inhibition at 2000 µM / %: 100

Exercise: Would you kindly share the measured inhibition at 2000 µM for N[C@@H](CS)C(=O)O [L-cysteine] ?
Key: 100

Exercise: Requested field: inhibition at 2000 µM. Item: N=C(N)NCCC[C@H](N)C(=O)O [L-arginine]
Key: 101

Exercise: Value lookup for inhibition at 2000 µM; key = N[C@@H](Cc1ccc(O)cc1)C(=O)O [L-tyrosine]
Key: 97

Exercise: Bench note: what inhibition at 2000 µM did C[C@H](N)C(=O)O [L-alanine] show?
Key: 98

Exercise: Value lookup for inhibition at 2000 µM; key = CC(C)C[C@H](N)C(=O)O [L-leucine]
Key: 100

Exercise: Which inhibition at 2000 µM value belongs to O=C(O)[C@@H]1CCCN1 [L-proline] ?
Key: 96

Exercise: Which measured inhibition at 2000 µM value corresponds to N[C@@H](Cc1ccccc1)C(=O)O [L-phenylalanine] ?
Key: 98

Exercise: If you can, please state the reported inhibition at 2000 µM value of N[C@@H](Cc1c[nH]cn1)C(=O)O [L-histidine] .
Key: 100

Where do these numbers come from? They come from paper PMC7413254.
